Quick reference for Ki among some binders
MEASUREMENT_TARGET: T1, human recombinant melanocortin-4 receptor (human, UniProt P32245 1-332)
T1 construct: whole, on cells; cAMP assays used the whole cells; also called hMC4-R; MC4-R
T1 sequence (P32245 whole entry): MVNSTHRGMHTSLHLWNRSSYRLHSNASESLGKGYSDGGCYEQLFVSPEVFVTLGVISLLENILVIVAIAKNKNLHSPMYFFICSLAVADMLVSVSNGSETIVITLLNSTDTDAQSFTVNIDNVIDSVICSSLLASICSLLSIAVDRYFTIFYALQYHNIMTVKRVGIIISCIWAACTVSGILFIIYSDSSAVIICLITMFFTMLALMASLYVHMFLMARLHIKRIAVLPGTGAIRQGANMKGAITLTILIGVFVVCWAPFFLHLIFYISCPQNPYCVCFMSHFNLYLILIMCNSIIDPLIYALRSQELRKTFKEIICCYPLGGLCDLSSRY
PROTOCOL_NOTES: competitive inhibition of Eu-NDP-α-MSH (TRF), hMC4-R HEK-293 membranes
Method: After incubation for 90 minutes at 37° C., the reaction was stopped by filtration over AcroWell 96-well filter plates (Pall Life Sciences). The filter plates were washed 4 times with 200 μL of ice-cold phosphate-buffered saline. […] The plates were incubated on a shaker for 15 minutes and read at 340 nm excitation and 615 nm emission wavelengths. […] Ki values were determined by curve-fitting with Graph-Pad Prism® software using a one-site fixed-slope competition binding model. […]
Bridge positions count the residues as written; N and C are the ends. Square brackets hold non-standard residues; d marks the D form. Orn = NCCC[C@H](N)C(=O)O

>  <BINDER>
RDIFRWK (HELM PEPTIDE1{[ac].R.D.I.[dF].R.W.K.[am]}$PEPTIDE1,PEPTIDE1,3:R3-8:R3$$$V2.0; SMILES CC[C@H](C)[C@@H]1NC(=O)[C@@H](NC(=O)[C@H](CCCNC(=N)N)NC(C)=O)CC(=O)NCCCC[C@@H](C(N)=O)NC(=O)[C@H](Cc2c[nH]c3ccccc23)NC(=O)[C@H](CCCNC(=N)N)NC(=O)[C@@H](Cc2ccccc2)NC1=O, also called peptide No. 34) [Ac-Arg-cyclo(Asp-Ile-D-Phe-Arg-Trp-Lys)-NH2]

>  <Ki>
19 nM

$$$$
>  <BINDER>
Ac-REH[dF]RW[Orn]-NH2 (lactam 2-7, also called peptide No. 64) [Ac-Arg-cyclo(Glu-His-D-Phe-Arg-Trp-Orn)-NH2]

>  <Ki>
1 nM

$$$$
>  <BINDER>
RDYFRWK (HELM PEPTIDE1{[ac].R.D.Y.[dF].R.W.K.[am]}$PEPTIDE1,PEPTIDE1,3:R3-8:R3$$$V2.0; SMILES CC(=O)N[C@@H](CCCNC(=N)N)C(=O)N[C@H]1CC(=O)NCCCC[C@@H](C(N)=O)NC(=O)[C@H](Cc2c[nH]c3ccccc23)NC(=O)[C@H](CCCNC(=N)N)NC(=O)[C@@H](Cc2ccccc2)NC(=O)[C@H](Cc2ccc(O)cc2)NC1=O, also called peptide No. 11) [Ac-Arg-cyclo(Asp-Tyr-D-Phe-Arg-Trp-Lys)-NH2]

>  <Ki>
43 nM

$$$$
>  <BINDER>
RDMFRWK (HELM PEPTIDE1{[ac].R.D.M.[dF].R.W.K.[am]}$PEPTIDE1,PEPTIDE1,3:R3-8:R3$$$V2.0; SMILES CSCC[C@@H]1NC(=O)[C@@H](NC(=O)[C@H](CCCNC(=N)N)NC(C)=O)CC(=O)NCCCC[C@@H](C(N)=O)NC(=O)[C@H](Cc2c[nH]c3ccccc23)NC(=O)[C@H](CCCNC(=N)N)NC(=O)[C@@H](Cc2ccccc2)NC1=O, also called peptide No. 38) [Ac-Arg-cyclo(Asp-Met-D-Phe-Arg-Trp-Lys)-NH2]

>  <Ki>
35 nM

$$$$
